These entries and their values trace back to ChEMBL document CHEMBL4613246.

Test system: Mycobacterium tuberculosis
Assay: Antimycobacterial activity against Mycobacterium tuberculosis H37Rv assessed as reduction in microbial growth after 7 days by alamar blue assay
Type: functional
Details: 168 h
Starred links: 1 amine or outer side, 2 acyl side, 3 side chain; linkers in the order of their positions; H or OH if unused. Non-standard residues stand in square brackets, D forms with d. Residues, ends and D or L forms follow the SMILES beside them. Trp(1-CMe2(2S-oxiranyl)) = CC(C)([C@H]1CO1)n1cc(C[C@H](N)C(=O)O)c2ccccc21; Trp(1-(1,1-Me2-allyl)) = C=CC(C)(C)n1cc(C[C@H](N)C(=O)O)c2ccccc21; Tyr(3-NO2) = N[C@@H](Cc1ccc(O)c([N+](=O)[O-])c1)C(=O)O; X1 = COC(OC)C(C)C[C@@H](C(=O)[*:2])N(C)[*:1]; X2 = C[C@H](CO)C[C@@H](C(=O)[*:2])N(C)[*:1]; Gly(E-crotyl) = C/C=C/C[C@H](N)C(=O)O; NMeL = CN[C@@H](CC(C)C)C(=O)O
Overview of reported MIC across a group of molecules:

molecule	assayed.target	censor.symbol	MIC (µM)
C=CC(C)(C)n1cc(C[C@@H]2NC(=O)[C@H](C/C=C/C)NC(=O)[C@H](CC(C)C)NC(=O)[C@H](C[C@H](C)CO)N(C)C(=O)[C@H](C)NC(=O)[C@H](Cc3ccc(O)c([N+](=O)[O-])c3)NC(=O)[C@H](CC(C)C)N(C)C2=O)c2ccccc21 (cyclo(A[X2]L[Gly(E-crotyl)][Trp(1-(1,1-Me2-allyl))][NMeL][Tyr(3-NO2)]))	Mycobacterium tuberculosis	=	0.84
C=CC(C)(C)n1cc(C[C@@H]2NC(=O)[C@H](CC(C)C)N(C)C2=O)c2ccccc21	Mycobacterium tuberculosis	>	10
C/C=C/C[C@@H]1NC(=O)[C@H](CC(C)C)NC(=O)[C@H](CC(C)C(OC)OC)N(C)C(=O)[C@H](C)NC(=O)[C@H](Cc2ccc(O)c([N+](=O)[O-])c2)NC(=O)[C@H](CC(C)C)N(C)C(=O)[C@H](Cc2cn(C(C)(C)[C@H]3CO3)c3ccccc23)NC1=O (stereo partly drawn) (cyclo(A[X1]L[Gly(E-crotyl)][Trp(1-CMe2(2S-oxiranyl))][NMeL][Tyr(3-NO2)]))	Mycobacterium tuberculosis	=	0.11
C/C=C/C[C@@H]1NC(=O)[C@H](CC(C)C)NC(=O)[C@H](CC(C)C)N(C)C(=O)[C@H](C)NC(=O)[C@H](Cc2ccc(O)c([N+](=O)[O-])c2)NC(=O)[C@H](CC(C)C)N(C)C(=O)[C@H](Cc2cn(C(C)(C)[C@H]3CO3)c3ccccc23)NC1=O (cyclo(A[NMeL]L[Gly(E-crotyl)][Trp(1-CMe2(2S-oxiranyl))][NMeL][Tyr(3-NO2)]))	Mycobacterium tuberculosis	=	0.2

----------
Molecular target: ATP-dependent Clp protease ATP-binding subunit ClpC1 (Mycobacterium tuberculosis, UniProt P9WPC9)
Sequence (P9WPC9 whole entry, the tested form may be a part): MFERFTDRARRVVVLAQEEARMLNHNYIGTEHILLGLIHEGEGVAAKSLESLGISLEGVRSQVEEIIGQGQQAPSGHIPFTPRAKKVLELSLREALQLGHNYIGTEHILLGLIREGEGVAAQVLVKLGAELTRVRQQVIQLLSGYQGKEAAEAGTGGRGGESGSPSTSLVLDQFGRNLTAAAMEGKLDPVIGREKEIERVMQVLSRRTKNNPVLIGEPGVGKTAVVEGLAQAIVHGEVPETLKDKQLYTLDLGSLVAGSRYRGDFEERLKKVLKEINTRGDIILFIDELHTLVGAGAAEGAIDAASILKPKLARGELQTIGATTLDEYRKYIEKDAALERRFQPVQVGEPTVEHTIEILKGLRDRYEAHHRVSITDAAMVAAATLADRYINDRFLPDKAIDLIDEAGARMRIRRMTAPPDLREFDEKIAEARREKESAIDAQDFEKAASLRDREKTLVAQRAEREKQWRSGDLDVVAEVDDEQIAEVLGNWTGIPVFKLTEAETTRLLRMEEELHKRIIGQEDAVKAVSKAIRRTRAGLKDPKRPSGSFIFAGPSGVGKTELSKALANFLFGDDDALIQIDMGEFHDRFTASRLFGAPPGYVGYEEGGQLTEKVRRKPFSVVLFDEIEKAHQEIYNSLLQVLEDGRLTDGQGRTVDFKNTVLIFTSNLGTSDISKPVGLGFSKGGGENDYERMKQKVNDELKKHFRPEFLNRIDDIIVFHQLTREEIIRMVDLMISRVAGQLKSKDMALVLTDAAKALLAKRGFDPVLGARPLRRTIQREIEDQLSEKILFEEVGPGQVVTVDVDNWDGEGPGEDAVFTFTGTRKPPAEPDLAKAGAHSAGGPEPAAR
Assay: Binding affinity to recombinant Mycobacterium tuberculosis H37Rv N-terminal His6-tagged ClpC1 (1 to 145 residues) expressed in Escherichia coli BL21 cells by surface plasmon resonance analysis
Starred links: 1 amine or outer side, 2 acyl side, 3 side chain; linkers in the order of their positions; H or OH if unused. Non-standard residues stand in square brackets, D forms with d. Residues, ends and D or L forms follow the SMILES beside them. Trp(1-CMe2(2S-oxiranyl)) = CC(C)([C@H]1CO1)n1cc(C[C@H](N)C(=O)O)c2ccccc21; Trp(1-(1,1-Me2-allyl)) = C=CC(C)(C)n1cc(C[C@H](N)C(=O)O)c2ccccc21; Tyr(3-NO2) = N[C@@H](Cc1ccc(O)c([N+](=O)[O-])c1)C(=O)O; X2 = C[C@H](CO)C[C@@H](C(=O)[*:2])N(C)[*:1]; Gly(E-crotyl) = C/C=C/C[C@H](N)C(=O)O; NMeL = CN[C@@H](CC(C)C)C(=O)O
Overview of reported Kd across a group of molecules:

molecule	Kd (nM)
C/C=C/C[C@@H]1NC(=O)[C@H](CC(C)C)NC(=O)[C@H](CC(C)C)N(C)C(=O)[C@H](C)NC(=O)[C@H](Cc2ccc(O)c([N+](=O)[O-])c2)NC(=O)[C@H](CC(C)C)N(C)C(=O)[C@H](Cc2cn(C(C)(C)[C@H]3CO3)c3ccccc23)NC1=O (cyclo(A[NMeL]L[Gly(E-crotyl)][Trp(1-CMe2(2S-oxiranyl))][NMeL][Tyr(3-NO2)]))	1700
C/C=C/C[C@@H]1NC(=O)[C@H](CC(C)C)N2C(=O)[C@H](C[C@@H](C)[C@H]2O)N(C)C(=O)[C@H](C)NC(=O)[C@H](Cc2ccc(O)c([N+](=O)[O-])c2)NC(=O)[C@H](CC(C)C)N(C)C(=O)[C@H](Cc2cn(C(C)(C)[C@H](O)CO)c3ccccc23)NC1=O	300
C/C=C/C[C@@H]1NC(=O)[C@H](CC(C)C)NC(=O)[C@H](C[C@H](C)CO)N(C)C(=O)[C@H](C)NC(=O)[C@H](Cc2ccc(O)c([N+](=O)[O-])c2)NC(=O)[C@H](CC(C)C)N(C)C(=O)[C@H](Cc2cn(C(C)(C)[C@H]3CO3)c3ccccc23)NC1=O (cyclo(A[X2]L[Gly(E-crotyl)][Trp(1-CMe2(2S-oxiranyl))][NMeL][Tyr(3-NO2)]))	620
C=CC(C)(C)n1cc(C[C@@H]2NC(=O)[C@H](C/C=C/C)NC(=O)[C@H](CC(C)C)NC(=O)[C@H](CC(C)C)N(C)C(=O)[C@H](C)NC(=O)[C@H](Cc3ccc(O)c([N+](=O)[O-])c3)NC(=O)[C@H](CC(C)C)N(C)C2=O)c2ccccc21 (cyclo(A[NMeL]L[Gly(E-crotyl)][Trp(1-(1,1-Me2-allyl))][NMeL][Tyr(3-NO2)]))	1200
